Molecular target: Alpha-1A adrenergic receptor (Rattus norvegicus)
Experiment: Antagonist activity at alpha-1a adrenergic receptor in Wistar rat prostatic vas deferens assessed as inhibition of (-)-noradrenaline-induced contraction
Answer each item with its documented pKb.
Answers are plain numbers.

molecule | pKb
COc1ccccc1OCCNCC1COC(c2ccccc2)(c2ccccc2)O1 (stereo not given) | 7.53
COc1ccccc1OCCNCC1COC(c2ccccc2)(c2ccccc2)OC1.O=C(O)C(=O)O | 5.98
c1ccc(OCCNCC2COC(c3ccccc3)(c3ccccc3)OC2)cc1 | 5.52
c1ccc(OCCNCC[C@@H]2CO[C@H](C(c3ccccc3)c3ccccc3)O2)cc1 (relative stereo) | 6.14
COc1ccccc1OCCNCC[C@H]1CO[C@H](C(c2ccccc2)c2ccccc2)O1 (relative stereo) | 6.23
c1ccc(OCCNCC2COC(c3ccccc3)(c3ccccc3)O2)cc1 (stereo not given) | 6.16

Report pKb for every entry below.
1. COc1ccccc1OCCNCCC1COC(c2ccccc2)(c2ccccc2)O1 (stereo not given)
2. COc1ccccc1OCCNCC1CCOC(c2ccccc2)(c2ccccc2)O1 (stereo not given)
3. c1ccc(OCCNCC2CCOC(c3ccccc3)(c3ccccc3)O2)cc1 (stereo not given)
4. c1ccc(OCCNC[C@H]2CO[C@H](C(c3ccccc3)c3ccccc3)O2)cc1 (relative stereo)
5. COc1ccccc1OCCNC[C@H]1CO[C@H](C(c2ccccc2)c2ccccc2)O1 (relative stereo)
6. c1ccc(OCCNCCOC(c2ccccc2)c2ccccc2)cc1
7. COc1ccccc1OCCNCCOC(c1ccccc1)c1ccccc1

[6.74, 6.99, 6.12, 6.29, 6.78, 7.65, 6.18]

Report pKb for every entry below.
1. c1ccc(OCCNC[C@@H]2CO[C@H](C(c3ccccc3)c3ccccc3)O2)cc1 (relative stereo)
2. COc1ccccc1OCCNCC(CO)OC(c1ccccc1)c1ccccc1 (stereo not given)
3. COc1ccccc1OCCNC[C@@H]1CO[C@H](C(c2ccccc2)c2ccccc2)O1 (relative stereo)
4. COc1ccccc1OCCNCC[C@@H]1CO[C@H](C(c2ccccc2)c2ccccc2)O1 (relative stereo)
5. c1ccc(OCCNCC[C@H]2CO[C@H](C(c3ccccc3)c3ccccc3)O2)cc1 (relative stereo)
6. c1ccc(OCCNCCC2COC(c3ccccc3)(c3ccccc3)O2)cc1 (stereo not given)

6.22
6.51
6.16
6.58
5.71
6.34

* * *

Target: Alpha-1A adrenergic receptor (Homo sapiens)
Sequence (P35348 whole entry): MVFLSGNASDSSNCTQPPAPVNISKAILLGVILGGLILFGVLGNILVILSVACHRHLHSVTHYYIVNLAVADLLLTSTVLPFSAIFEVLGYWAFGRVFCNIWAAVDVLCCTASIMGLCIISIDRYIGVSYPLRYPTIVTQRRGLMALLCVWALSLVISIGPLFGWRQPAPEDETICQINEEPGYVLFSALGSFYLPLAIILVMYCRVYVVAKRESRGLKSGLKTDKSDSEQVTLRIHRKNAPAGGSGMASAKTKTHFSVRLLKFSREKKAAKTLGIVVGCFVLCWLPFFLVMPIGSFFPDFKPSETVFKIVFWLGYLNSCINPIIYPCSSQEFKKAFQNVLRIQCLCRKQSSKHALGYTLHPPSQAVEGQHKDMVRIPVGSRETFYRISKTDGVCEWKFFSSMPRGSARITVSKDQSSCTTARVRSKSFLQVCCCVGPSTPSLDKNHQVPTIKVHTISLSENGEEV
pKi: −log10 of the molar value.
Values of pKi greater than or equal to 7 map to y; values below map to n.

Examples with answers:
compound | class.name
COc1ccccc1OCCNCCOC(c1ccccc1)c1ccccc1 | y
c1ccc(OCCNCC2CCOC(c3ccccc3)(c3ccccc3)O2)cc1 (stereo not given) | y
c1ccc(OCCNCC2COC(c3ccccc3)(c3ccccc3)OC2)cc1 | n
c1ccc(OCCNCCC2COC(c3ccccc3)(c3ccccc3)O2)cc1 (stereo not given) | y

For this compound, is measured pKi 7 or higher? `COc1ccccc1OCCNCC1COC(c2ccccc2)(c2ccccc2)OC1.O=C(O)C(=O)O` y
